Source of measurements: patent US20230357429A1

Biological target: T1, Peptide-43 (cysteine pairing not given here; also: biotinylated, site not given here)
T1 peptide: VDFCALYHWPICYQ
Assay: ELISA, Fab on captured biotin-peptide
Where no end group is shown, it is not given here.
REPORTED_METRIC: log10(EC50) (log10 of the value in nM)
Log10 applied to EC50; unit prior to transform: nM.

Record excerpt, results attached:
TBD-11 (HC R98A) (Fab, V domains shown, Fab; also called HC R98A mutant) VH: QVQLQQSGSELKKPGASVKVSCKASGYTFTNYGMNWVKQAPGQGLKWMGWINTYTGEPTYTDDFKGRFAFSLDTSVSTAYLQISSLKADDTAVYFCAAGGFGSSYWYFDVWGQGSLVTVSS VL: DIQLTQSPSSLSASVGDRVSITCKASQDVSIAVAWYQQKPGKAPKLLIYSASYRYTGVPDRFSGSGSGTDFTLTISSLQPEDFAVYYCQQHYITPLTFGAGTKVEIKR :: 1.89
TBD-17 (HC S104A) (Fab, V domains shown, Fab; also called HC S104A mutant) VH: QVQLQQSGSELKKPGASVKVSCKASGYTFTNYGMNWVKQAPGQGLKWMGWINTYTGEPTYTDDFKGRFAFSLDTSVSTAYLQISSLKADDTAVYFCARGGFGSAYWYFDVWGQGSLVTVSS VL: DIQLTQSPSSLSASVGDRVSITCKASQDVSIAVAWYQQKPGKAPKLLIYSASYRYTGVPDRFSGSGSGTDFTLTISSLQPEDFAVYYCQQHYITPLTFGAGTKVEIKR :: 0.69
TBD-22 (HC D109A) (Fab, V domains shown, Fab; also called HC D109A mutant) VH: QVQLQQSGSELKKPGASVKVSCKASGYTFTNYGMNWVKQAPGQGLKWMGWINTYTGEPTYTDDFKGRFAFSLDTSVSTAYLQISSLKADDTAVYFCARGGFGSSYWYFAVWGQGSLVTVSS VL: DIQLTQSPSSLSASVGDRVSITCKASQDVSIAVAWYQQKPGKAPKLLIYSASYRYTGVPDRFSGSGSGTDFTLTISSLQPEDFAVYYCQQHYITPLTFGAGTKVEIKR :: -0.05

Need log10(EC50), item TBD-1 wt (Fab, V domains shown, Fab; the heavy chain entry is VH-CH1; also called wild-type anti-TROP2 Fab (hRS7); TROP2 Fab) VH: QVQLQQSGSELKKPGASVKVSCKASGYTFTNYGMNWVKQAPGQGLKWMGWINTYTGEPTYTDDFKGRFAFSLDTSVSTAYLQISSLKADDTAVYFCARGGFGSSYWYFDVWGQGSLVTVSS VL: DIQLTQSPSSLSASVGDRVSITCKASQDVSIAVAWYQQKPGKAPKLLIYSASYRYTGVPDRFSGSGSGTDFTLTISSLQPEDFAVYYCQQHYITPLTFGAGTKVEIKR
1.44

Item under review: TBD-6 (LC I93A) (Fab, V domains shown, Fab; also called LC I93A mutant) VH: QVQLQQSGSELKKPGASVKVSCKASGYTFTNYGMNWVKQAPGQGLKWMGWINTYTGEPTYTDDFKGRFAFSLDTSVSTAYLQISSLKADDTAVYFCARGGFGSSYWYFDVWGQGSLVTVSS VL: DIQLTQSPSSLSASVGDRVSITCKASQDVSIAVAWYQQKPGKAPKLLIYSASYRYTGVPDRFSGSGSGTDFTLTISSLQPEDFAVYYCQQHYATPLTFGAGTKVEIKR . Reported log10(EC50)?
0.86

# get_value(readout='log10(EC50)', item= TBD-21 (HC F108A) (Fab, V domains shown, Fab; also called HC F108A mutant) VH: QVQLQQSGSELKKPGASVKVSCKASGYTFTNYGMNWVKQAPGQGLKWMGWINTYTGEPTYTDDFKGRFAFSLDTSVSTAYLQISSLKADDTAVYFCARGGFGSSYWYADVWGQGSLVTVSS VL: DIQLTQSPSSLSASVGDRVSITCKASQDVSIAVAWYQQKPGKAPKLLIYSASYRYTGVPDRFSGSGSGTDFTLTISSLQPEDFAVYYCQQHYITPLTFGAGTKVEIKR )
1.08
